Test system: STAPHYLOCOCCUS EPIDERMIDIS 3519
Assay type: cell-based
condition.notes: S. epidermidis 3519; BHI agar; unit assumed
Recorded MIC values for a group of compounds are listed next.
Quick note: give the figure in µg/mL, leave out the unit.

compound: CC[C@H]1OC(=O)[C@H](C)C(=O)[C@H](C)[C@@H](O[C@@H]2O[C@H](C)C[C@H](N(C)C)[C@H]2O)[C@](C)(OC)C[C@@H](C)C2=NC3CN(CCOC)CC3N3C(=O)O[C@@]1(C)[C@H]3[C@H]2C (some centres unmarked) [Example 126]
MIC / µg/mL: 1.56

Input line: Item under review: CC[C@H]1OC(=O)[C@H](C)C(=O)[C@H](C)[C@@H](O[C@@H]2O[C@H](C)C[C@H](N(C)C)[C@H]2O)[C@](C)(OC)C[C@@H](C)C2=N[C@H](COCc3ccccc3Br)CN3C(=O)O[C@@]1(C)[C@H]3[C@H]2C [Example 104] . Reported MIC?
Output line: 0.05

----------
For reference, MIC measured on PROVIDENCIA STUARTII CMX 640:

Completed entries (count: 3):
molecule: CC[C@H]1OC(=O)[C@H](C)C(=O)[C@H](C)[C@@H](O[C@@H]2O[C@H](C)C[C@H](N(C)C)[C@H]2O)[C@](C)(OC)C[C@@H](C)C2=NC[C@H](CCCc3ccccc3)N3C(=O)O[C@@]1(C)[C@H]3[C@H]2C
subject.of.test: PROVIDENCIA STUARTII CMX 640
MIC: > 100 µg/mL
//
molecule: CC[C@H]1OC(=O)[C@H](C)C(=O)[C@H](C)[C@@H](O[C@@H]2O[C@H](C)C[C@H](N(C)C)[C@H]2O)[C@](C)(OC)C[C@@H](C)C2=NC[C@@H](CCCc3ccccc3)N3C(=O)O[C@@]1(C)[C@H]3[C@H]2C
subject.of.test: PROVIDENCIA STUARTII CMX 640
MIC: 100 µg/mL
//
molecule: CC[C@H]1OC(=O)[C@H](C)C(=O)[C@H](C)[C@@H](O[C@@H]2O[C@H](C)C[C@H](N(C)C)[C@H]2O)[C@](C)(OC)C[C@@H](C)C2=NC[C@H](C)N3C(=O)O[C@@]1(C)[C@H]3[C@H]2C
subject.of.test: PROVIDENCIA STUARTII CMX 640
MIC: > 100 µg/mL

Now look at this entry.
Input line: Name the reported MIC value associated with the molecule CCOC(=O)CCN1CC2N=C3C(C)CC(C)(OC)C(OC4OC(C)CC(N(C)C)C4O)C(C)C(=O)C(C)C(=O)OC(CC)C4(C)OC(=O)N(C2C1)C4C3C (stereo not shown)
Output line: > 100 µg/mL

----------
Listed below: MIC values for each entry.
System: ESCHERICHIA COLI H560
procedure.summary: In vitro antibacterial activity, MIC, BHI agar dilution
Format: cell-based
condition.notes: E. coli H560, unit assumed
Note: unit µg/mL is implicit; provide only the numeric part.

molecule: CC[C@H]1OC(=O)[C@H](C)C(=O)[C@H](C)[C@@H](O[C@@H]2O[C@H](C)C[C@H](N(C)C)[C@H]2O)[C@](C)(OC)C[C@@H](C)C2=N[C@H](COCc3ccc(C#N)cc3)CN3C(=O)O[C@@]1(C)[C@H]3[C@H]2C [Example 74]
result.number: 100

molecule: CC[C@H]1OC(=O)[C@H](C)C(=O)[C@H](C)[C@@H](O[C@@H]2O[C@H](C)C[C@H](N(C)C)[C@H]2O)[C@](C)(OC)C[C@@H](C)C2=NC[C@@H](COCc3ccccc3)N3C(=O)O[C@@]1(C)[C@H]3[C@H]2C [Example 37]
result.number: 25

molecule: CC[C@H]1OC(=O)[C@H](C)C(=O)[C@H](C)[C@@H](O[C@@H]2O[C@H](C)C[C@H](N(C)C)[C@H]2O)[C@](C)(OC)C[C@@H](C)C2=N[C@@H](COCc3ccncc3)CN3C(=O)O[C@@]1(C)[C@H]3[C@H]2C [Example 86]
result.number: 50

molecule: CC[C@H]1OC(=O)[C@H](C)[C@@H](O[C@H]2C[C@@](C)(OC)[C@@H](O)[C@H](C)O2)[C@H](C)[C@@H](O[C@@H]2O[C@H](C)C[C@H](N(C)C)[C@H]2O)[C@](C)(O)C[C@@H](C)C(=O)[C@H](C)[C@@H](O)[C@]1(C)O [Ery A, Erythromycin A, reference compound]
result.number: 25

Input line: MIC of CC[C@H]1OC(=O)[C@H](C)C(=O)[C@H](C)[C@@H](O[C@@H]2O[C@H](C)C[C@H](N(C)C)[C@H]2O)[C@](C)(OC)C[C@@H](C)C2=NC[C@H](COCc3ccc(OC)cc3)N3C(=O)O[C@@]1(C)[C@H]3[C@H]2C [Example 62] on ESCHERICHIA COLI H560?
Output line: 100

----------
Test system: ESCHERICHIA COLI H560
procedure.summary: In vitro antibacterial activity, MIC, BHI agar dilution
Assay type: cell-based
condition.notes: E. coli H560, unit assumed
recorded.metric: MIC

compound: CC[C@H]1OC(=O)[C@H](C)C(=O)[C@H](C)[C@@H](O[C@@H]2O[C@H](C)C[C@H](N(C)C)[C@H]2O)[C@](C)(OC)C[C@@H](C)C2=N[C@H](COCc3ccccc3Cl)CN3C(=O)O[C@@]1(C)[C@H]3[C@H]2C
MIC: > 100 µg/mL

Input line: Any idea what MIC came out for CC[C@H]1OC(=O)[C@H](C)C(=O)[C@H](C)[C@@H](O[C@@H]2O[C@H](C)C[C@H](N(C)C)[C@H]2O)[C@](C)(OC)C[C@@H](C)C2=NC3CN(CC(OC)OC)CC3N3C(=O)O[C@@]1(C)[C@H]3[C@H]2C (some centres unmarked) on ESCHERICHIA COLI H560?
Output line: > 100 µg/mL

----------
Measured MIC, listed per entry for reference.
System: STAPHYLOCOCCUS AUREUS CMX 642A
procedure.summary: In vitro antibacterial activity, MIC, BHI agar dilution
Type: cell-based
condition.notes: S. aureus CMX 642A, unit assumed
Express your answer in µg/mL, writing the number without its unit.

Please review the following examples before continuing.
compound: CC[C@H]1OC(=O)[C@H](C)C(=O)[C@H](C)[C@@H](O[C@@H]2O[C@H](C)C[C@H](N(C)C)[C@H]2O)[C@](C)(OC)C[C@@H](C)C2=NC[C@H](COCc3ccc(F)cc3)N3C(=O)O[C@@]1(C)[C@H]3[C@H]2C [Example 71]
MIC [µg/mL]: 0.1
//
compound: CC[C@H]1OC(=O)[C@H](C)C(=O)[C@H](C)[C@@H](O[C@@H]2O[C@H](C)C[C@H](N(C)C)[C@H]2O)[C@](C)(OC)C[C@@H](C)C2=NCC(COC(=O)c3cccc4[nH]ccc34)N3C(=O)O[C@@]1(C)[C@H]3[C@H]2C (some centres unmarked) [Example 144]
MIC [µg/mL]: 0.1
//
compound: CC[C@H]1OC(=O)[C@H](C)C(=O)[C@H](C)[C@@H](O[C@@H]2O[C@H](C)C[C@H](N(C)C)[C@H]2O)[C@](C)(OC)C[C@@H](C)C2=NC[C@H](COCc3ccc(OC)cc3)N3C(=O)O[C@@]1(C)[C@H]3[C@H]2C [Example 62]
MIC [µg/mL]: 0.2
//
compound: CC[C@H]1OC(=O)[C@H](C)C(=O)[C@H](C)[C@@H](O[C@@H]2O[C@H](C)C[C@H](N(C)C)[C@H]2O)[C@](C)(OC)C[C@@H](C)C2=NC3CN(C=O)CC3N3C(=O)O[C@@]1(C)[C@H]3[C@H]2C (some centres unmarked) [Example 124]
MIC [µg/mL]: 0.78
//
compound: CCC1OC(=O)C(C)C(=O)C(C)C(OC2OC(C)CC(N(C)C)C2O)C(C)(OC)CC(C)C2=NCC(CSc3ccccc3)(CN(C)C)N3C(=O)OC1(C)C3C2C (centres unmarked) [Example 135]
MIC [µg/mL]: 3.1

Input line: Any idea what MIC was measured for CCOC(=O)CCN1CC2N=C3C(C)CC(C)(OC)C(OC4OC(C)CC(N(C)C)C4O)C(C)C(=O)C(C)C(=O)OC(CC)C4(C)OC(=O)N(C2C1)C4C3C (centres unmarked) [Example 130] ?
Output line: 1.56

Input line: Queued: CC[C@H]1OC(=O)[C@H](C)C(=O)[C@H](C)[C@@H](O[C@@H]2O[C@H](C)C[C@H](N(C)C)[C@H]2O)[C@](C)(OC)C[C@@H](C)C2=NC[C@H](Cc3ccccc3)N3C(=O)O[C@@]1(C)[C@H]3[C@H]2C [Example 5]
Output line: 0.2

Input line: Repeat with CC[C@H]1OC(=O)[C@H](C)C(=O)[C@H](C)[C@@H](O[C@@H]2O[C@H](C)C[C@H](N(C)C)[C@H]2O)[C@](C)(OC)C[C@@H](C)C2=N[C@H](COCc3ccc(C(=O)OC)cc3)CN3C(=O)O[C@@]1(C)[C@H]3[C@H]2C [Example 84]
Output line: 0.2

Input line: Check CC[C@H]1OC(=O)[C@H](C)C(=O)[C@H](C)[C@@H](O[C@@H]2O[C@H](C)C[C@H](N(C)C)[C@H]2O)[C@](C)(OC)C[C@@H](C)C2=NC3CN(C(C)=O)CC3N3C(=O)O[C@@]1(C)[C@H]3[C@H]2C (some centres unmarked) [Example 125] too.
Output line: 12.5

Input line: And what about the compound CC[C@H]1OC(=O)[C@H](C)C(=O)[C@H](C)[C@@H](O[C@@H]2O[C@H](C)C[C@H](N(C)C)[C@H]2O)[C@](C)(OC)C[C@@H](C)C2=NC3CN(CCc4ccc(N)cc4)CC3N3C(=O)O[C@@]1(C)[C@H]3[C@H]2C (some centres unmarked) [Example 121] ?
Output line: 0.78

Input line: Next entry: CCC1OC(=O)C(C)C(=O)C(C)C(OC2OC(C)CC(N(C)C)C2O)C(C)(OC)CC(C)C2=NC(CCOc3ccccc3)CN3C(=O)OC1(C)C3C2C (centres unmarked) [Example 91]
Output line: 0.78

Input line: Proceed to CC[C@H]1OC(=O)[C@H](C)C(=O)[C@H](C)[C@@H](O[C@@H]2O[C@H](C)C[C@H](N(C)C)[C@H]2O)[C@](C)(OC)C[C@@H](C)C2=NC3CN(C(C)c4ccccc4)CC3N3C(=O)O[C@@]1(C)[C@H]3[C@H]2C (some centres unmarked) [Example 113]
Output line: 0.78

Input line: Item: CC[C@H]1OC(=O)[C@H](C)C(=O)[C@H](C)[C@@H](O[C@@H]2O[C@H](C)C[C@H](N(C)C)[C@H]2O)[C@](C)(OC)C[C@@H](C)C2=NC3COCC3N3C(=O)O[C@@]1(C)[C@H]3[C@H]2C (some centres unmarked) [Example 108]
Output line: 0.78

Input line: What would you report for CC[C@H]1OC(=O)[C@H](C)C(=O)[C@H](C)[C@@H](O[C@@H]2O[C@H](C)C[C@H](N(C)C)[C@H]2O)[C@](C)(OC)C[C@@H](C)C2=N[C@H](COCc3ccc(Br)cc3)CN3C(=O)O[C@@]1(C)[C@H]3[C@H]2C [Example 103] ?
Output line: 0.05

Input line: Item: CC[C@H]1OC(=O)[C@H](C)C(=O)[C@H](C)[C@@H](O[C@@H]2O[C@H](C)C[C@H](N(C)C)[C@H]2O)[C@](C)(OC)C[C@@H](C)C2=N[C@@H]3CN(Cc4ccncc4)C[C@@H]3N3C(=O)O[C@@]1(C)[C@H]3[C@H]2C [Example 25]
Output line: 0.78

Input line: Now the same for CC[C@H]1OC(=O)[C@H](C)C(=O)[C@H](C)[C@@H](O[C@@H]2O[C@H](C)C[C@H](N(C)C)[C@H]2O)[C@](C)(OC)C[C@@H](C)C2=NC3CCCC3N3C(=O)O[C@@]1(C)[C@H]3[C@H]2C (some centres unmarked) [Example 107]
Output line: 0.78

Input line: Could you do the same for CC[C@H]1OC(=O)[C@H](C)C(=O)[C@H](C)[C@@H](O[C@@H]2O[C@H](C)C[C@H](N(C)C)[C@H]2O)[C@](C)(OC)C[C@@H](C)C2=N[C@@H]3CN(CCc4ccccc4)C[C@@H]3N3C(=O)O[C@@]1(C)[C@H]3[C@H]2C [Example 23] , please?
Output line: 0.2
